ASSAY REMARKS: xn = mol fraction of the nth substance listed
CONDITION NOTES: 298.2 K; 101 kPa; Liquid; Taylor dispersion method; x1 = 0
MEASUREMENT NAME: binary diffusion coefficient (m2/s)
Write it as a number; the unit m2/s goes unstated.

Study these solved cases before continuing.
>  <COMPOUND>
NCCC(=O)O [3-aminopropanoic acid] + O

>  <binary diffusion coefficient (m2/s)>
9.37e-10

$$$$
>  <COMPOUND>
NCCCCC(=O)O [5-aminovaleric acid] + O

>  <binary diffusion coefficient (m2/s)>
7.76e-10

$$$$
>  <COMPOUND>
NCCCCCCC(=O)O [7-aminoheptanoic acid] + O

>  <binary diffusion coefficient (m2/s)>
6.88e-10

$$$$

Could you tell me which binary diffusion coefficient is on file for NCCCC(=O)O [4-aminobutanoic acid] + O ? 8.38e-10

Could you tell me which binary diffusion coefficient is on file for NCCCCCC(=O)O [6-aminohexanoic acid] + O ? 7.28e-10

* * *

ASSAY REMARKS: xn = mol fraction of the nth substance listed
CONDITION NOTES: 323.2 K; 101 kPa; Liquid; Taylor dispersion method; x1 = 0
MEASUREMENT NAME: binary diffusion coefficient (m2/s)
Write it as a number; the unit m2/s goes unstated.

Study these solved cases before continuing.
>  <COMPOUND>
NCCCCCCC(=O)O [7-aminoheptanoic acid] + O

>  <MEASUREMENT NAME>
binary diffusion coefficient

>  <DISPLAY UNIT>
m2/s

>  <OBSERVED RESULT>
1.23e-09

$$$$
>  <COMPOUND>
NCCCCCC(=O)O [6-aminohexanoic acid] + O

>  <MEASUREMENT NAME>
binary diffusion coefficient

>  <DISPLAY UNIT>
m2/s

>  <OBSERVED RESULT>
1.29e-09

$$$$
>  <COMPOUND>
NCCC(=O)O [3-aminopropanoic acid] + O

>  <MEASUREMENT NAME>
binary diffusion coefficient

>  <DISPLAY UNIT>
m2/s

>  <OBSERVED RESULT>
1.64e-09

$$$$
>  <COMPOUND>
NCCCCC(=O)O [5-aminovaleric acid] + O

>  <MEASUREMENT NAME>
binary diffusion coefficient

>  <DISPLAY UNIT>
m2/s

>  <OBSERVED RESULT>
1.39e-09

$$$$

Let us examine a further case.
Could you tell me which binary diffusion coefficient is on file for NCCCC(=O)O [4-aminobutanoic acid] + O ? 1.49e-09

* * *

The entries below come with measured binary diffusion coefficient values attached.
ASSAY REMARKS: xn = mol fraction of the nth substance listed
CONDITION NOTES: 313.2 K; 101 kPa; Liquid; Taylor dispersion method; x1 = 0
Write it as a number; the unit m2/s goes unstated.

Could you tell me which binary diffusion coefficient is on file for NCCCC(=O)O [4-aminobutanoic acid] + O ? 1.2e-09

Could you tell me which binary diffusion coefficient is on file for NCCC(=O)O [3-aminopropanoic acid] + O ? 1.35e-09

Could you tell me which binary diffusion coefficient is on file for NCCCCCC(=O)O [6-aminohexanoic acid] + O ? 1.05e-09

Could you tell me which binary diffusion coefficient is on file for NCCCCCCC(=O)O [7-aminoheptanoic acid] + O ? 1e-09

Could you tell me which binary diffusion coefficient is on file for NCCCCC(=O)O [5-aminovaleric acid] + O ? 1.12e-09

These entries and their values trace back to the NIST ThermoML archive (doi:10.1021/je301370s).
